Each item that follows carries a reported inhibition.
Assay: inhibitors of TNFa-induced NFkB p65 translocation, primary screen, imaging, HUVEC, MLSMR starter and 10KST1 sets (AID 438);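 also: compound added about 3h40 before a 20 min TNFalpha stimulation; signal is the nuclear over cytoplasmic p65 intensity ratio per well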
Details: HUVEC TNFa-induced p65 nuclear translocation; at 2 µM, stronger effect = higher value, 0% TNFa-plus-vehicle, 100% no-TNFa wells
Give the value, in units of %, as a plain number.

Past entries and their recorded results:
CCOC(=O)C1=C(CSc2nc3c(cc2C#N)CN(C)CC3)OC(N)=C(C#N)C1c1ccccc1 (stereo unspecified) :: -8.1
CCOC(=O)c1n[nH]c2ccccc12 :: -6.3
COc1ccc(NC(=O)CSC2=C(C#N)C(c3ccco3)C3=C(CCCC3=O)N2)c(OC)c1 (stereo unspecified) :: 1.6
CCSc1nnc(N(CCC(=O)O)CCC(=O)O)s1 :: -10.5
CC(C)C(=O)N1CCN(c2nc(-c3ccccc3)c3c(c2C#N)CCCC3)CC1 :: -2.8

Now for another entry.
INPUT: If you can, please state the reported inhibition value of CCOc1cccc(-c2nnc3sc(COc4ccccc4)nn23)c1 .
OUTPUT: -7.5

----------
Experiment: inhibitors of Sendai virus-induced IRF3 signaling, primary screen, TLR/RLR signaling modifier project, cell-based, Sendai virus stimulus, luciferase, 10K MLSCN set (AID 602276);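 also: firefly luciferase from ISG56 promoter only with Renilla not read in this screen; 0% = Sendai virus plus DMSO and 100% = medium plus DMSO without virus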
Settings: HEK293 RL24 IRF3 luciferase reporter, at 10 µM, stronger effect = higher value
valueKind: inhibition (%)
Reply numerically in %, unit not repeated.

Observe how each entry below is paired with its result.
CN(C)c1ccc(O)c2c1CC1CC3[C@@H](N(C)C)C(=O)C(C(N)=O)=C(O)[C@]3(O)C(=O)C1=C2O (stereo not given in full) :: 17.8
COc1cccc2c1C(=O)c1c(O)c3c(c(O)c1C2=O)C[C@@](O)(C(=O)CO)C[C@@H]3O[C@H]1C[C@H](N)[C@H](O)[C@H](C)O1 :: -38.5
CCCc1nc(N2CCOCC2)c(C#N)c2c1CCCC2 :: 19.9
CCOC(=O)CSc1nc(N)c2c3c(sc2n1)CCCC3 :: 12.5
c1ccc(-c2ccc(C(c3ccccc3)n3ccnc3)cc2)cc1 (stereo not given) :: 2.51

INPUT: Param item = Cc1cc(/C=N\O)c(C)n1-c1ccncc1 ; retrieve measured inhibition.
OUTPUT: 20.1

INPUT: Param item: CC(=O)Oc1cc(C(C)C)c(OCCN(C)C)cc1C
OUTPUT: 15

INPUT: Moving on to COc1cc([C@@H]2[C@H]3CN(C)CC=C3C(C#N)=C(N)C2(C#N)C#N)cc2c1OCO2
OUTPUT: 4.57

INPUT: Likewise for CC(C)[N+](C)(CCOC(=O)C1c2ccccc2Oc2ccccc21)C(C)C ?
OUTPUT: 20.3

INPUT: Another: CC(C)OC(=O)C(C)(C)Oc1ccc(C(=O)c2ccc(Cl)cc2)cc1
OUTPUT: -6.93

----------
Experiment: inhibitors of mutant huntingtin aggregation, primary screen, imaging, exon1htt(103Q)mCFP cells, high-content imaging (AID 483);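 also: compound exposure lasted 3 days before fixation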
Settings: exon1htt(103Q)mCFP cell line, aggregate imaging, at 2 µM; stronger effect = higher value
Here the recorded inhibition of aggregation is given for each entry.
// note: answer is a bare numeric in %

Past entries and their recorded results:
C[N+]12CCC(CC1)C(OC(=O)C(O)(c1ccccc1)c1ccccc1)C2 (stereo not given) :: 3.7
Cc1ccc(Cl)c(Nc2ccccc2C(=O)O)c1Cl :: 12.3
O=C(CCCN1CC=C(n2c(=O)[nH]c3ccccc32)CC1)c1ccc(F)cc1 :: -8.1
COc1cc([C@@H]2c3cc4c(cc3[C@H](O)[C@H]3COC(=O)[C@H]23)OCO4)cc(OC)c1OC :: -118
COc1cccc(Cn2c(OCC3CCCO3)nc3c2c(=O)n(C)c(=O)n3C)c1 (stereo not given) :: 1.3
O=C1CSC(=Nc2ccc(O)cc2)N1c1ccc(O)cc1 :: 3.6
NS(=O)(=O)c1cc2c(cc1Cl)NC(CSCc1ccccc1)=NS2(=O)=O :: 13.9
C[C@H](CCC(=O)O)[C@H]1CC[C@H]2[C@@H]3C(=O)C[C@@H]4CC(=O)CC[C@]4(C)[C@H]3CC(=O)[C@]12C :: 5.8

INPUT: What value of inhibition of aggregation has been recorded for this entry: CCOC(=O)c1[nH]c2cc(OC)c(OC)cc2c1NC(=O)C(C)N1CCN(Cc2ccccc2)CC1 (stereo not given)
OUTPUT: 10.2

INPUT: Entry CCOc1ccc(S(=O)(=O)N(C)C)cc1-c1nc2c(C(C)(C)C)nn(C)c2c(=O)[nH]1 please
OUTPUT: -22.3
